Attribution: PubChem BioAssay (NCATS)

Test system: CP268
Test: qHTS profiling for inhibitors of Plasmodium falciparum proliferation (AID 504749); further: nearly all actives have a fitted effect of over 60% in size
Conditions: P. falciparum in erythrocytes, SYBR Green DNA, 72 h; series mostly up to 28.7 µM
Experimental: NIH National Institute of Allergy and Infectious Diseases [NIAID] NIH Chemical Genomics Center [NCGC] […] Because mature erythrocytes lack DNA, only Plasmodium-derived DNA is detected. NCGC Assay Protocol Summary: The SYBR Green viability assay was adapted from a method described previously (Plouffe et al., 2008). […] The following morning, fluorescence intensity at 485(14) nm excitation and 535(25) nm emission wavelengths was measured on an EnVision (Perkin Elmer) plate reader. […]
Records with an inconclusive call do not appear. Activity calls are given as the source filed them. The call rests on the fitted dose curve; in most records, active means well fitted inhibition curve with a large enough effect; inconclusive means small, poorly fitted or top-dose-only effect; inactive means flat fitted curve, though single readings scatter.
Reply using exactly one outcome from active, inactive

Solved entries:
Asked: Can you look up the reported call for CCN(CC)CCNC(=O)COc1ccc(OC)cc1 for me?
Given back: inactive

Asked: For Cc1cccc(C)c1NC(=O)c1ccccc1C(=O)O , which call appears in the assay record?
Given back: inactive

---
Asked: Give the logged outcome of this assay for the following compound: CCCN(CCC)S(=O)(=O)c1ccc(C(=O)O)cc1
Given back: inactive

Asked: Record request — test call for O=C(O)P(=O)(O)O
Given back: inactive

Asked: Given CN(C)C(=O)Nc1ccc(Cl)c(Cl)c1 , state the outcome it received in this test.
Given back: inactive

Asked: Record lookup: outcome of this test for CN(C)CCC[C@@]1(c2ccc(F)cc2)OCc2cc(C#N)ccc21 ?
Given back: inactive

Asked: Would you mind telling me which call this test gave CC(=O)NO ?
Given back: inactive

Asked: Which outcome did this test record for the compound NS(=O)(=O)c1cc(C(=O)O)cc(N2CCCC2)c1Oc1ccccc1 ?
Given back: inactive

Asked: Per the records of this test, what outcome belongs to COc1cc(C(=S)N2CCOCC2)ccc1O ?
Given back: inactive

Asked: How was O=C(O)C(Cc1cc(I)c(O)c(I)c1)c1ccccc1 (stereo unspecified) classified in this test?
Given back: inactive

Asked: Returns: the outcome recorded for CCCCCCCCCCCCCC(=O)OC(C)C in this assay.
Given back: inactive

Asked: Recorded test call requested for Cc1cccc(C)c1NC(=O)CN1CCCCCC1
Given back: inactive

Asked: Check the results log: what was the call for CCOC(=O)c1c(N)sc2c1CCN(Cc1ccccc1)C2 ?
Given back: active
